Overview of reported clearance across a group of compounds:
- experiment.summary: Plasma clearance in Wistar-Han rat at 2 mg/kg, iv or 10 mg/kg, po administered as single dose via gavage and measured up to 24 hrs by LC/MS/MS analysis
- Format: ADME, organism-based
Answer with a number only, understood to be in mL/min/kg.

1. Cc1ccc2nc(N3CCS(=O)(=O)c4ccccc4C3)cc(NCC3(N)COC3)c2c1; 51

Measured clearance, Cc1ccc2nc(N3CCS(=O)(=O)c4ccccc4C3)nc(NCC3(N)COC3)c2c1 : 58

---

- experiment.summary: Oral bioavailability in CD-1 mouse at 50 mg/kg
- Type: ADME, organism-based
- cond: in vivo
quantity.name: bioavailability (%)
Just the number in %, nothing appended.

Briefly, bioavailability measured for Cc1ccc2nc(N3CCS(=O)(=O)c4ccccc4C3)nc(NCC3(N)COC3)c2c1 : 66
